# pEC50 per record follows
Target: human kappa opioid receptor (hKOR) (Homo sapiens, UniProt P41145)
Sequence (P41145 whole entry): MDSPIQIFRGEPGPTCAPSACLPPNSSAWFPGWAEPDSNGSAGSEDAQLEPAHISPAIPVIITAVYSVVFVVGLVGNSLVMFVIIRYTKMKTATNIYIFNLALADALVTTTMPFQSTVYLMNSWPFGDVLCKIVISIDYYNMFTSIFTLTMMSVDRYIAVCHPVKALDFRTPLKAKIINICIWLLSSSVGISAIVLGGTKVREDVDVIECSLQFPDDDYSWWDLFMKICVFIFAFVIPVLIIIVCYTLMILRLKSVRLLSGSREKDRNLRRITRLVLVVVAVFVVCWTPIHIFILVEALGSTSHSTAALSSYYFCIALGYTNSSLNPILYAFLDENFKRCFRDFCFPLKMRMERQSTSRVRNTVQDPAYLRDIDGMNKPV
Assay: BRET Gi-1 activation, HEK293T cells
Details: read-out: EC50 Gi-1 activation hKOR; BRET
pEC50: −log10 of the molar value.
Experimental readout: pEC50

| Compound smiles | Assay system | Value measured |
| --- | --- | --- |
| CC[C@H]1CN2CCc3c([nH]c4cccc(OC)c34)[C@H]2C[C@@H]1/C(=C\OC)C(=O)OC | human kappa opioid receptor (hKOR) (Homo sapiens, UniProt P41145) | 6.57 |
| C=C[C@H]1CN2CCc3c([nH]c4cccc(OC)c34)[C@H]2C[C@@H]1/C(=C\OC)C(=O)OC | human kappa opioid receptor (hKOR) (Homo sapiens, UniProt P41145) | 6.25 |
